# Run description: Cytotoxicity against human PBMC assessed as cell viability at 100 uM incubated for 72 hrs by resazurin assay
# Format: toxicity, cell-based
Quantity name: Activity

Compound	Result
COc1cc(O)c(Cc2ccc(O)cc2)c2c1C(c1ccc(O)cc1)c1ccc(O)cc1CC2 (racemic)	Non-Toxic
COc1cc(O)cc(CCc2cccc(O)c2)c1Cc1ccc(O)cc1	Non-Toxic
COc1cc(O)cc2c1C(c1ccc(O)cc1)c1ccc(O)cc1CC2 (racemic)	Non-Toxic
COc1cc(C2c3ccc(O)cc3CCc3cc(O)cc(OC)c32)ccc1O (centres undefined)	Non-Toxic

###

# Test system: CCRF-CEM
# Run description: Cytotoxicity against human CCRF-CEM cells assessed as inhibition of cell growth incubated for 72 hrs by resazurin assay
# Type: functional, cell-based
# key: entry, value: IC50
Reply numerically in µM, unit not repeated.

Consider the following illustrative entries.
Molecule	Assay system	IC50, µM
COc1cc(C2c3ccc(O)cc3CCc3cc(O)cc(OC)c32)ccc1O (centres undefined)	CCRF-CEM	18.7
COc1cc(O)cc2c1C(c1ccc(O)cc1)c1ccc(O)cc1CC2 (racemic)	CCRF-CEM	45.7
COc1cc(O)c(Cc2ccc(O)cc2)c2c1C(c1ccc(O)cc1)c1ccc(O)cc1CC2 (racemic)	CCRF-CEM	6.7

What measured IC50 goes with COc1cc(O)cc(CCc2cccc(O)c2)c1Cc1ccc(O)cc1 ? 43.4
